Tested on: Rattus norvegicus
Experiment: The hypotensive activity expressed as rating of therapeutic index (MED/LD50 <1/200).
Format: organism-based
Settings: in vivo
QUANTITY_KIND: TI rating
The reply should be a number, written without any unit.

Solved entries:
Using the record for CCC(C)(C)/N=C(\NC#N)Nc1ccncc1 , state its measured TI rating.
3

Respond only with TI rating recorded for CC(C)(C)/N=C(\NC#N)Nc1ccncc1
3

More entries:
Provide TI rating value for the following molecule: CC(C)(C)/N=C(/NC#N)Nc1cccnc1
3

Consider the molecule CC(C)C(C)(C)/N=C(\NC#N)Nc1cccnc1 and give its recorded TI rating.
3

Look up and state reported TI rating for CCC(CC)(CC)/N=C(\NC#N)Nc1cccnc1
3

Note down TI rating recorded for CCCC(C)(C)/N=C(\NC#N)Nc1cccnc1
3

Tell me measured TI rating for CC(/N=C(/NC#N)Nc1cccnc1)C(C)(C)C (stereo not drawn) please.
3
